Biological target: T1, His-tagged human TIGIT (human, UniProt Q495A1 22-141)
T1 construct: soluble analyte in SPR
T1 sequence: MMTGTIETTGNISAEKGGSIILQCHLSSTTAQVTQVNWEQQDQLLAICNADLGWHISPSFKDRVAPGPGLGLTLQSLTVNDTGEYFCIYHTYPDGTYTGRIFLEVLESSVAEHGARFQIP
Assay: SPR Biacore, antibody captured on anti-human Fc, His-tagged TIGIT injected
value_kind: kon (M⁻¹ s⁻¹)
Numbers only, in M⁻¹ s⁻¹.

{"binder": "7728B03 (antibody, V domains shown, constant regions correspond to those of H03-12) VH: QMQLVQSGSELKKPGASVKVSCKASGYTFTSYPMNWVRQAPGQGLEWMGWINTNTGNPTYAQGFTGRFVFSLDTSVSTAYLQISSLKAEDTAVYYCARTGGYSVDEYSFDIWGQGTTVTVSS VL: DIQLTQSPSFLSASVGDRVTITCRASQGISSYLAWYQQKPGKAPKLLIYAASTLQSGVPSRFSGSGSGTEFTLTISSLQPEDFATYYCHQTIFRPTFGGGTKVEIK", "value_kind": "kon", "observed": 325000}
{"binder": "3963H03 (antibody, human IgG1, kappa, V domains shown, fully human IgG1 kappa, B-cell cloning hit from OmniRat; also called 3963H03 VH; 3963H03 VK) VH: EIQLVQSGSELKKPGASVKVSCKASGYTFTSYPMNWVRQAPGQGLEWMGWINTNTGNPTYAQGFTGRFVFSLDTSVSTAYLQISSLKAEDTAVYYCARVGGYSVDEYAFDVWGQGTMVTVSS VL: AIRLTQSPSFLSASVGDRVTITCRASQGISSYLAWYQQKPGKAPKLLIYAASTLQSGVPSRFSGSGSGTEFTLTISSLQPEDFATYYCQQLNSYPTFGGGTKVEIKR", "value_kind": "kon", "observed": 121000}

Now let's try a different one.
Given the entry 3963H03-12 (antibody, human IgG1, kappa, V domains shown, also called anti-TIGIT H03-12; 39631H03-12) VH: QVQLVQSGSELKKPGASVKVSCKASGYTFTSYPMNWVRQAPGQGLEWMGWINTNTGNPTYAQGFTGRFVFSLDTSVSTAYLQISSLKAEDTAVYYCARVGGYSVDEYAFDVWGQGTLVTVSS VL: DIQLTQSPSFLSASVGDRVTITCRASQGISSYLAWYQQKPGKAPKLLIYAASTLQSGVPSRFSGSGSGTEFTLTISSLQPEDFATYYCQQLSSYPTFGGGTKVEIKR , report its measured kon.
166000
